Tested on: FLT1;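 further: KINOMEscan kinase panel screen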
Assay conditions: concentration: 1 μM,replicates: in singlicate; n = 1
Measure: %Inh (%)
Give just the numeric value; % need not be written.

Request: Name the reported %Inh value associated with the compound COc1ccc(C[C@@H](CN)NC(=O)c2cc(Br)c(-c3ccnc4[nH]ccc34)s2)cc1.Cl.Cl
Response: 82

Request: Then this compound: Cl.Oc1cc(-c2nc(-c3ccccc3)[nH]c2-c2ccncc2)ccc1Cl
Response: 2

Request: Then this compound: Cc1cc(C(=O)Nc2ccc(Oc3ccc4nc(NC(=O)C5CC5)cn4n3)cc2)nn1-c1ccccc1
Response: 88

Request: Then this compound: Cc1ccc2c(-c3ccncc3)c(-c3ccc(F)cc3)nn2c1.Cl
Response: 5

Request: Then this compound: Cc1occc1-c1nc(N)c(OC[C@@H](N)Cc2c[nH]c3ccccc23)cc1-c1cc2c(C)n[nH]c2cn1
Response: 31

Request: Then this compound: Cl.Cl.NC[C@H](CC1CCCCC1)NC(=O)c1cc(Br)c(-c2ccnc3[nH]ccc23)s1
Response: 39

Request: Then this compound: CN(C)CC(O)COc1ccc(Nc2nccc(-c3cnn4nc(N5CCOCC5)ccc34)n2)cc1 (centres unmarked)
Response: 11

Request: Then this compound: CCN(CC)CCOc1ccc(Nc2ncc3cc(-c4c(Cl)cccc4Cl)c(=O)n(C)c3n2)cc1
Response: 99

Request: Then this compound: Cc1n[nH]c2ccc(-c3cc(OC[C@@H](N)Cc4ccccc4)cnc3-c3ccoc3)cc12.O=C(O)C(F)(F)F.O=C(O)C(F)(F)F
Response: 2

Request: Then this compound: Nc1nc(Nc2ccccc2)cc(-c2ccc3c(N)n[nH]c3c2)n1
Response: 10

Request: Then this compound: CC(C)Nc1cc(-c2ccc3c(N)n[nH]c3c2)nc(N)n1
Response: 18

Request: Then this compound: O=C(NCCCN1CCOC1=O)c1cnc(NCc2cc(Cl)ccc2Cl)nc1NC1CCCC1
Response: 6

Request: Then this compound: CC(C)N1C(=O)Cc2cc(Nc3ncc(C(F)(F)F)c(NCc4cccc(S(C)(=O)=O)c4)n3)ccc21
Response: 62

Request: Then this compound: Cl.Cl.Nc1nc(-c2ccc3c(N)n[nH]c3c2)cc(N2CCCC(NC(=O)c3ccccc3)C2)n1 (centres unmarked)
Response: 16
